Tested on: SNB-75 CNS
Experiment: NCI-60 one-dose screen, 48 h (100 = growth as untreated, 0 = no growth, -100 = all killed)
Details: 10 µM unless noted
Description: Growth inhibition of the SNB-75 human tumor cell line is measured as a screen for anti-cancer activity. Cells are grown in 96 well plates and exposed to the test compound for 48 hours. Compounds are tested at a single concentration, which is 10^-5 M for most compounds. The reported endpoint is percent growth (GI% or GIPRCNT), where numbers from 0 - 100% represent growth inhibition, and numbers from -100% - 0 represent cell death. For example, a value of 40 represents 60% growth inhibition. […]
The panel holds about 83,000 compounds, 20% with a hit somewhere; the sample as a whole holds those more often. Activity calls are given as the source filed them. How the source made its calls: active means growth percent below 10; inactive means the rest.
Readout: growth

Examples from the recorded data:
Molecule	Reported Measurement
C[C@@H]1CC[C@H]2[C@@H](C)C(O)O[C@@H]3O[C@]4(C)CC[C@@H]1[C@]32OO4 (stereo not given in full)	52.5% (inactive)
COc1ccc2c(c1)/C(=C\c1c[nH]c3ccc(F)cc13)C(=O)N2	86.7% (inactive)
CCC[C@H](N[C@@H](C)C(=O)N1[C@H](C(=O)O)C[C@@H]2CCCC[C@@H]21)C(=O)OCC	112% (inactive)
CCN(CC)c1ccc(N=Nc2cc(Cl)ccc2Cl)c(NC(=O)CCC(=O)O)c1	91.1% (inactive)
COc1cc(C2NC(c3ccc(Cl)cc3)C(C)C(=NC(=O)c3cnccn3)C2C)cc(OC)c1OC (stereo not given)	90.9% (inactive)
C=C(C)[C@@H]1C[C@H](O)Cc2cc(Cl)cc(Cl)c2N1	87.4% (inactive)

Exercise: Report measured growth; entry is `Cc1ccc(C(=O)Nc2ccc(Cl)cc2C(=O)NCc2ccccc2)cc1`
Key: 67.3% (inactive)

Exercise: Answer with the recorded growth of `COc1c(O)cc2oc3cc(O)c(CC=C(C)C)c(O)c3c(=O)c2c1C/C=C(\C)CCC=C(C)C` only.
Key: 84.6% (inactive)

Exercise: // fetch growth given entry `COc1ccc2[nH]c(-c3ccccc3)cc2c1`
Key: 88% (inactive)

Exercise: Hello, please tell me recorded growth for this one: `COc1ccc(OC)c(/C=C/c2nc(=S)n(-c3ccc(Cl)cc3)[nH]2)c1`
Key: 42.5% (inactive)

Exercise: Specify measured growth for `Cn1cc(-c2csc(-c3cn(C)c4ncccc34)n2)c2cc(Br)cnc21` .
Key: 73.1% (inactive)

Exercise: Consider the molecule `CCSc1nnc2n(Cc3ccccc3)c(=O)c3c(C)c(C(N)=O)sc3n12` . State its measured growth.
Key: 69.4% (inactive)

Exercise: Respond only with growth recorded for `O=C(/C(=C/c1cccc([N+](=O)[O-])c1)c1ccccc1)c1ccccc1`
Key: 56.8% (inactive)

Exercise: Give the measured growth for OC(c1cc(C(F)(F)F)nc2c(C(F)(F)F)cccc12)C1CCCCN1 (stereo not given)
Key: 33% (inactive)

Exercise: Read the entry `Cn1cc(-c2csc(-c3cn(C)c4ncccc34)n2)c2cc(F)cnc21` and write its reported growth.
Key: 75.2% (inactive)

Exercise: Provide one value: measured growth of `C/C(=N\N1CC(=O)NC1=O)c1ccc([N+](=O)[O-])o1`
Key: 96.4% (inactive)

Exercise: Consider the molecule `C[C@]12CC[C@@H]3c4ccc(O)c([N+](=O)[O-])c4CC[C@H]3[C@@H]1CC[C@@H]2NS(=O)(=O)c1cccc(Br)c1` and give its recorded growth.
Key: 47.2% (inactive)

Exercise: Supply recorded growth for `CC(C)C(=O)Cc1cnccn1` here.
Key: 102% (inactive)

Exercise: Provide one value: measured growth of CC[N+](C)(CC)CCCC(C)Nc1ccnc2cc(Cl)ccc12 (stereo not given)
Key: 99.8% (inactive)

Exercise: Look up and state reported growth for `CC(C)c1nc(N(C)S(C)(=O)=O)nc(-c2ccc(F)cc2)c1/C=C/[C@@H](O)C[C@@H](O)CC(=O)O`
Key: 107% (inactive)
